Where do these numbers come from? They come from patent US20170260530.

- system.tested: Gelsolin (GSN) (Homo sapiens, UniProt P06396 SEQ:28-782)
- Sequence (P06396 28-782): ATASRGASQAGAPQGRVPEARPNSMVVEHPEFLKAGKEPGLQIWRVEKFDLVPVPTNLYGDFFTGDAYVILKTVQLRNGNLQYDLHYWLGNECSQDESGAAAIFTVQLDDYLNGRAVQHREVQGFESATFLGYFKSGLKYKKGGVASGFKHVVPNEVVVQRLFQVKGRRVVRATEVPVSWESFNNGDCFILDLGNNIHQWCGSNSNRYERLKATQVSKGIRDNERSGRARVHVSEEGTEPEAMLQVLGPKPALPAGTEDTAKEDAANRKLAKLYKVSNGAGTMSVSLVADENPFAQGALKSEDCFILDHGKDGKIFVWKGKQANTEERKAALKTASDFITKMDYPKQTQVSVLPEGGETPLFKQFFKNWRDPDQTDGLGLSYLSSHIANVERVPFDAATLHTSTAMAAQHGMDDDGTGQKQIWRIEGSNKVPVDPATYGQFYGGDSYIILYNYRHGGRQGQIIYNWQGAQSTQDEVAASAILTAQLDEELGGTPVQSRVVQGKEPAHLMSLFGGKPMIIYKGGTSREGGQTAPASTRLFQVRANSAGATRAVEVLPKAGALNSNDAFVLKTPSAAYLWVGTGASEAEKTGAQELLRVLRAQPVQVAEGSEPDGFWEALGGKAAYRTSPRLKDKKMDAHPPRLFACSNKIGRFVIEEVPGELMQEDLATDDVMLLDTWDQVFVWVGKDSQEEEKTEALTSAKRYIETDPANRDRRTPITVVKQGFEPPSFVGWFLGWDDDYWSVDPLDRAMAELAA
- test: microtiter (ELISA-type) assay, immobilized aptamer 1.56-100 nM, 100 nM gelsolin; 25 mM Tris pH 8, 150 mM NaCl, 2 mM CaCl2, 5 mM MgCl2, 10 mM KCl; RT
- run.conditions: tags: tagless; expressed from pET303/CT-His vector in E. coli BL21(DE3); label: biotin
assay.metric: Kd (nM)
Use nM as the unit, but write only the number.

In: If you can, please state the reported Kd value of 10.10R (ssDNA) DNA: TCAAGTGGTCATGTACTAGTCAAGCACTTTCGCTGCTCGCTGGCGCCGCGCCCATCATATGTCCTTCTCTTCCCTA .
Out: 7.2
